- test-method-notes: NCI Yeast Anticancer Drug Screen. Data for the mec2-1 strain (AID 157)
- assay-conditions: S. cerevisiae mec2-1 strain, at 50.0 µM
This is part of a sample that, as a whole, favours compounds with a hit. Of some 79,000 tested, about 15% had one in any assay. The source made the active and inactive calls. No stated cut-off is given here; in the data, active means growth inhibition above about 70%; inactive means the rest.
Outcome (select one): active, inactive

Example entries and their recorded answers appear below.
[[record]]
compound = "O=C1CSC2=NC3=C(COC/C3=C\\c3ccc(F)cc3)C(c3ccc(F)cc3)N12 (centres undefined)"
answer_label = "inactive"

[[record]]
compound = "COC(=O)c1cc(CC2Cc3cc4c(cc3C2)CCC4)cc2c1CCC2"
answer_label = "inactive"

[[record]]
compound = "CCOC(=O)CCC(NC(=O)c1ccc(Nc2nc3cc(C(F)(F)F)ccc3nc2C(=O)OCC)cc1)C(=O)OCC (centres undefined)"
answer_label = "inactive"

[[record]]
compound = "COC(=O)c1cc(C(=O)OC)c(C/C(=N/Nc2ccc([N+](=O)[O-])cc2[N+](=O)[O-])C(=O)Nc2cccc(C(F)(F)F)c2)nc1C/C(=N/Nc1ccc([N+](=O)[O-])cc1[N+](=O)[O-])C(=O)Nc1cccc(C(F)(F)F)c1"
answer_label = "inactive"

[[record]]
compound = "CCOC(=O)CCC(C(=O)OCC)N1C(=O)c2ccccc2C1=O (centres undefined)"
answer_label = "inactive"

[[record]]
compound = "CCCCCCCCCCCCCCCCCCN(C)CC(COC)OP(=O)([O-])OCC[N+](C)(C)C (centres undefined)"
answer_label = "inactive"

[[record]]
compound = "O=C1OCC(CN2CCC(n3c(=O)[nH]c4ccccc43)CC2)=C1c1ccccc1"
answer_label = "inactive"

[[record]]
compound = "C=CCN(CC=C)P(=O)(N(CC=C)CC=C)N(CC=C)CC=C"
answer_label = "inactive"

[[record]]
compound = "CC(=O)/C(=C/n1c(=S)sc2ccccc21)C(=O)Nc1ccc([N+](=O)[O-])cc1"
answer_label = "inactive"

[[record]]
compound = "O=C(O)c1cc(-c2ccccc2)ccc1O"
answer_label = "inactive"


Give the logged outcome of this assay for the following compound: `C1CC2N=NC1C21CC1.[Cl][Cu][Cl]`
inactive

Moving on to `O=C1c2cc(CCl)sc2C(=O)c2ccsc21`
active
